target: Histamine H1 receptor (Homo sapiens); test: Agonist activity at human histamine H1 receptor expressed in Sf9 cells coexpressing RGS4 by steady-state GTPase assay
Sequence (P35367 whole entry): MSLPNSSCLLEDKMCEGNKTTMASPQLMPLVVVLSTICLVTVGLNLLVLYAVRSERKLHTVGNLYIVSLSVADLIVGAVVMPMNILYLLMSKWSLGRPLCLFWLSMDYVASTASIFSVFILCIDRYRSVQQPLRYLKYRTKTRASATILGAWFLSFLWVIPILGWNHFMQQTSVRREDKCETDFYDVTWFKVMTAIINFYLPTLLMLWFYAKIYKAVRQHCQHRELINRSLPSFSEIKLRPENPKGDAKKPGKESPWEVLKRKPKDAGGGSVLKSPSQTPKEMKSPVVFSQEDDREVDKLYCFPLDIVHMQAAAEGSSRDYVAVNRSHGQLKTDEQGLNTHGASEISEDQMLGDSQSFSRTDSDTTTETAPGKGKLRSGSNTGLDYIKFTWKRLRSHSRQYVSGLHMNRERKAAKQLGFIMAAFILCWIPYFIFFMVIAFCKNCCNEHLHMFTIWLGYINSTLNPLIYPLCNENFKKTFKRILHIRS
Quantity measured: pEC50
Kindly note that pEC50 refers to -log10 of the concentration in mol/L and answer with the value alone.

Data request: Assign pEC50 to the following record: "Cc1nc[nH]c1CCN"
Data returned: 4.80

====

biological target: UniProt Q9H3N8; experiment: Agonist activity at human histamine H4 receptor expressed in Sf9 cells coexpressing RGS19 protein by steady-state GTPase assay
Sequence (Q9H3N8 whole entry): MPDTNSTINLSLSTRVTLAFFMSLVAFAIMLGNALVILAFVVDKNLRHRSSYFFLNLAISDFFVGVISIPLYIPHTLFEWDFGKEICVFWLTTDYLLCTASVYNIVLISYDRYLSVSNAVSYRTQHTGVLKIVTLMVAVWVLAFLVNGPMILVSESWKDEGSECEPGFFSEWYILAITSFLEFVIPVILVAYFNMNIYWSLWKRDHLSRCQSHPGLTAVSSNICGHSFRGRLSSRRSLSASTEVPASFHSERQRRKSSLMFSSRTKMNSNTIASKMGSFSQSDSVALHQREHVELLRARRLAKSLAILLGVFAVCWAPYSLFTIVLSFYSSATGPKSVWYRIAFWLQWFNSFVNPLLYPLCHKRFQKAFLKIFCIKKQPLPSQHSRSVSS
Quantity measured: pEC50
Kindly note that pEC50 refers to -log10 of the concentration in mol/L and answer with the value alone.

Here's what some known entries look like.
[[record]]
test_smiles = "CC(C)N/C(=N\\C#N)NCCCCc1c[nH]cn1"
endpoint_result = 6.48

[[record]]
test_smiles = "N#CNC(N)=NCCCCc1cnc[nH]1"
endpoint_result = 6.77

[[record]]
test_smiles = "N#C/N=C(/NCCCCc1c[nH]cn1)NCCCc1cccnc1"
endpoint_result = 5.92

[[record]]
test_smiles = "N#C/N=C(/NCCCCc1c[nH]cn1)NCCc1ccccc1"
endpoint_result = 5.96


Data request: Assign pEC50 to the following record: "N#C/N=C(/NCCCCc1c[nH]cn1)NCCCc1ccccn1"
Data returned: 6.24

====

target: UniProt:Q9H3N8; assay: Agonist activity at human histamine H4 receptor expressed in Sf9 cells coexpressing RGS19 protein by steady-state GTPase assay
EC50 class ranges: bucket 1 = under 100 nM, bucket 2 = from 100 nM up to 800 nM, bucket 3 = 800 nM and over

Worked examples, 10 compounds total:
[[record]]
compound = "N#C/N=C(/NCCCCc1c[nH]cn1)NCCSc1ccccc1"
category = "bucket 1"

[[record]]
compound = "N#CNC(=NCCCCc1cnc[nH]1)NCCCc1ccncc1"
category = "bucket 3"

[[record]]
compound = "N#C/N=C(\\NCCCc1ccccc1)NCCCc1c[nH]cn1"
category = "bucket 2"

[[record]]
compound = "CC(CCNC(=NCCCCc1cnc[nH]1)NC#N)c1ccccc1 (stereo unspecified)"
category = "bucket 2"

[[record]]
compound = "CC(C)CN/C(=N\\C#N)NCCCCc1c[nH]cn1"
category = "bucket 2"

[[record]]
compound = "CCN/C(=N\\C#N)NCCCCc1c[nH]cn1"
category = "bucket 2"

[[record]]
compound = "N#CNC(=NCCCCc1cnc[nH]1)NCCCc1ccccc1"
category = "bucket 2"

[[record]]
compound = "Cc1nc[nH]c1CCN"
category = "bucket 1"

[[record]]
compound = "N#C/N=C(/NCCCc1c[nH]cn1)NCCSc1ccccc1"
category = "bucket 3"

[[record]]
compound = "Cc1[nH]cnc1CSCCN/C(=N/C#N)NCCC(c1ccccc1)c1ccccc1"
category = "bucket 3"


Pending compound:
Data request: Where would "CN/C(=N\C#N)NCCCCc1c[nH]cn1" land among the classes by reported EC50?
Data returned: bucket 3

====

In this section, each of the compounds is paired with its reported pKb.
molecular target: Histamine H2 receptor (Homo sapiens); test: Antagonist activity at human histamine H2 receptor expressed in Sf9 cells coexpressing GsalphaS protein by steady-state GTPase assay; type: functional
Sequence (P25021 whole entry): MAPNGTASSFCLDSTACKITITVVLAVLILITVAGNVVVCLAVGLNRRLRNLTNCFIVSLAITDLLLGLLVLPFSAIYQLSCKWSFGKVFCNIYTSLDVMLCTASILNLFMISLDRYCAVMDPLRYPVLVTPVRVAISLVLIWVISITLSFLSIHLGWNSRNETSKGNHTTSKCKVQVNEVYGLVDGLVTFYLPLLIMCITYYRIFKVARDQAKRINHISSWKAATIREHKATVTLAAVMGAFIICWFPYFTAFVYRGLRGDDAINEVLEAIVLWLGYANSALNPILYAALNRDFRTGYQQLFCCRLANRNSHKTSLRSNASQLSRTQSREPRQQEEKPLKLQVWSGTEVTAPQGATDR
Lab note: record the figure alone, no unit after it.

Here's what some known entries look like.
[[record]]
test_smiles = "N#C/N=C(/NCCCCc1c[nH]cn1)NCCc1ccccc1"
quantity_measured = "pKb"
endpoint_result = 5

[[record]]
test_smiles = "N#C/N=C(/NCCCCCc1c[nH]cn1)NCCCc1ccccc1"
quantity_measured = "pKb"
endpoint_result = 5.28

[[record]]
test_smiles = "CC(C)N/C(=N/C#N)NCCCCCc1c[nH]cn1"
quantity_measured = "pKb"
endpoint_result = 5.57


Consider the additional compound presented here.
Data request: Assign pKb to the following record: "N#C/N=C(/NCCCCc1c[nH]cn1)NCCCc1ccccn1"
Data returned: 5.48
